assay: BSK_LPS_PGE2: BioMAP Diversity Plus: LPS Assay for Prostaglandin E2 (PGE2) Biomarker Activity (AID 2283082); conditions: primary human HUVEC with PBMC; actives raise or lower the signal
Active and inactive are the calls of the source. The calls were made as follows: active = hit-call score of the fitted dose curve at least 0.9, where 1 is the maximum; inactive = score below 0.9.
Possible outcomes: active, inactive

INSERT INTO measurements (compound, label_value) VALUES
  ('Fc1ccc(Oc2ccnc3cc(Cl)cc(Cl)c23)cc1', 'active'),
  ('O=C(Nc1ccccc1)Nc1ccnc(Cl)c1', 'active'),
  ('Cc1c(F)c(F)c(COC(=O)C2C(/C=C(\Cl)C(F)(F)F)C2(C)C)c(F)c1F (stereo not drawn)', 'inactive'),
  ('COc1nc(NC(C)C)nc(NC(C)C)n1', 'inactive'),
  ('COP(=S)(OC)Oc1nc(Cl)c(Cl)cc1Cl', 'active'),
  ('CCNc1nc(Cl)nc(NCC)n1', 'inactive'),
  ('N#CC(CCc1ccc(Cl)cc1)(Cn1cncn1)c1ccccc1 (stereo not drawn)', 'active'),
  ('COP(N)(=O)SC (stereo not drawn)', 'active'),
  ('Cc1ccc(-c2c(Cl)nc(C#N)n2S(=O)(=O)N(C)C)cc1', 'active'),
  ('CN(C)C(=S)SSC(=S)N(C)C', 'active'),
  ('COc1nc(C)nc(NC(=O)NS(=O)(=O)c2ccccc2CCC(F)(F)F)n1', 'inactive'),
  ('C#CCOS(=O)OC1CCCCC1Oc1ccc(C(C)(C)C)cc1 (stereo not drawn)', 'inactive'),
  ('CCOC(=O)CC(SP(=S)(OC)OC)C(=O)OCC (stereo not drawn)', 'inactive'),
  ('COc1ccc(C(c2ccc(OC)cc2)C(Cl)(Cl)Cl)cc1', 'inactive'),
  ('CC(C)C1(C)N=C(c2nc3ccccc3cc2C(=O)O)NC1=O (stereo not drawn)', 'inactive'),
  ('OC(c1ccc(Cl)cc1)(c1cncnc1)c1ccccc1Cl (stereo not drawn)', 'active'),
  ('Oc1ccccc1-c1ccccc1', 'active'),
  ('CC1=C(C(=O)Nc2ccccc2)SCCO1', 'active');

----------
read-out: Interferon-gamma inducible Protein 10 (IP10), CXCL10 (gene 3627); test: BSK_BE3C_IP10: BioMAP Diversity Plus: BE3C Assay for Interferon-gamma inducible Protein 10 (IP10) Biomarker Activity (AID 2283034); conditions: primary human bronchial epithelial cells; actives raise or lower the signal
Activity calls are given as the source filed them. The calls were made as follows: active = hit-call score of the fitted dose curve at least 0.9, where 1 is the maximum; inactive = score below 0.9.
Possible outcomes: yes (1) = active, no (0) = inactive

INSERT INTO assay_data (molecule, label_value) VALUES
  ('O=C(O)COc1nc(Cl)c(Cl)cc1Cl', 'no (0)'),
  ('OC(c1ccc(Cl)cc1)(c1cncnc1)c1ccccc1Cl (configuration not stated)', 'yes (1)'),
  ('C=CC1(C)OC(=O)N(c2cc(Cl)cc(Cl)c2)C1=O (configuration not stated)', 'no (0)'),
  ('CCOP(=S)(OCC)SCn1c(=O)oc2cc(Cl)ccc21', 'no (0)'),
  ('N#Cc1cc(Br)c(O)c(Br)c1', 'yes (1)'),
  ('COC(=O)C(C)Oc1ccc(Oc2ccc(Cl)cc2Cl)cc1 (configuration not stated)', 'no (0)'),
  ('CNC(=S)S', 'no (0)'),
  ('COc1nc(C)nc(NC(=O)NS(=O)(=O)c2ccccc2Cl)n1', 'no (0)'),
  ('CC1=C(C(=O)Nc2ccccc2)SCCO1', 'no (0)'),
  ('COC(=O)N(OC)c1ccccc1COc1ccn(-c2ccc(Cl)cc2)n1', 'yes (1)'),
  ('CCOC(=O)C(Cl)Cc1cc(-n2nc(C)n(C(F)F)c2=O)c(F)cc1Cl (configuration not stated)', 'no (0)'),
  ('CNC(=O)ON=CC(C)(C)SC', 'no (0)'),
  ('CC(C)(C)c1ccc(CSc2cnn(C(C)(C)C)c(=O)c2Cl)cc1', 'yes (1)'),
  ('CCOC(=O)CC(SP(=S)(OC)OC)C(=O)OCC (configuration not stated)', 'no (0)'),
  ('C=CCC1=C(C)[C@@H](OC(=O)[C@@H]2[C@@H](C=C(C)C)C2(C)C)CC1=O', 'yes (1)'),
  ('CON(C)C(=O)Nc1ccc(Cl)c(Cl)c1', 'no (0)'),
  ('CCc1nn(C)c(C(=O)NCc2ccc(C(C)(C)C)cc2)c1Cl', 'yes (1)'),
  ('Fc1ccc(Oc2ccnc3cc(Cl)cc(Cl)c23)cc1', 'yes (1)'),
  ('CCCN(CCC)c1c([N+](=O)[O-])cc(S(N)(=O)=O)cc1[N+](=O)[O-]', 'yes (1)'),
  ('CCOc1cc(Oc2ccc(C(F)(F)F)cc2Cl)ccc1[N+](=O)[O-]', 'no (0)'),
  ('Cc1c(F)c(F)c(COC(=O)C2C(/C=C(\Cl)C(F)(F)F)C2(C)C)c(F)c1F (configuration not stated)', 'no (0)'),
  ('COc1nc(C)nc(NC(=O)NS(=O)(=O)c2ccccc2CCC(F)(F)F)n1', 'no (0)');
